B1: library; numbered along this chain (parent)
chain: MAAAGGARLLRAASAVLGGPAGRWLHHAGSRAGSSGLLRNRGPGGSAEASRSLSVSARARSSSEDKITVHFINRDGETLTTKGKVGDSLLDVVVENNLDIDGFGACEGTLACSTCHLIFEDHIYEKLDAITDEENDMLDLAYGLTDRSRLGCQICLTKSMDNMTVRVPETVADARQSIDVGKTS

- Variants of: B1
- assay_notes: scaled log2 fold change in cell abundance, elesclomol vs control (0 = silent mean, 1 = nonsense mean) (scaled log2 ratio); higher = higher viability under elesclomol (loss of FDX1 cuproptosis function);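 note: variant abundance is its share of total variant reads in each endpoint sample, from next-generation sequencing of the integrated ORF PCR-amplified out of genomic DNA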
- details: with ABC1 FDX1 KO; elesclomol 5 nM; glucose 10 mM; 14 days
Where scaled log2 fold change equals or exceeds 0.1, the correct label is fulfilled; where it does not, the label is not fulfilled.

G76S    fulfilled
V69A    not fulfilled
K66F    not fulfilled
F119Q    fulfilled
K158L    fulfilled

Req: Does G36T have a reported scaled log2 fold change of at least 0.1?
Resp: fulfilled

Req: Does E169N have a reported scaled log2 fold change of at least 0.1?
Resp: not fulfilled

Req: Does G151N have a reported scaled log2 fold change of at least 0.1?
Resp: fulfilled
